Test system: ERK phosphorylation in KYSE-520 cells
assay-overview: Phospho-ERK cellular assay (Advanced phospho-ERK1/2 (Thr202/Tyr204) TR-FRET kit)
Type: cell-based
details: Homo sapiens, KYSE-520, 2 h, KYSE-520 cells, 2 h at 37° C., TR-FRET; read-out: pERK IC50
pIC50: −log10 of the molar value.
quantity-name: pIC50

Prompt: Look up and report measured pIC50 for this entry: `Nc1cc(Sc2cnc3[nH]c(N4CCC5(CC4)Cc4ccccc4[C@H]5N)nc3n2)c(Cl)c(Cl)n1`
Completion: < 5.30

Prompt: Look up and report measured pIC50 for this entry: `N[C@@H]1c2cccnc2CC12CCN(c1nc3nc(Sc4ccnc(OC5COC5)c4Cl)cnc3[nH]1)CC2`
Completion: < 5.30

Prompt: Look up and report measured pIC50 for this entry: `N[C@@H]1c2ccccc2CC12CCN(c1nc3nc(Sc4nccnc4Cl)cnc3[nH]1)CC2`
Completion: > 6.00

Prompt: Look up and report measured pIC50 for this entry: `CNc1nccc(Sc2cnc3[nH]c(N4CCC5(CC4)Cc4ccccc4[C@H]5N)nc3n2)c1Cl`
Completion: > 6.00

Prompt: Look up and report measured pIC50 for this entry: `CC(=O)Nc1nccc(Sc2cnc3[nH]c(N4CCC5(CC4)Cc4ccccc4[C@H]5N)nc3n2)c1Cl`
Completion: > 6.00

Prompt: Look up and report measured pIC50 for this entry: `N#Cc1c[nH]c2nccc(Sc3cnc4[nH]c(N5CCC6(CC5)Cc5ccccc5[C@H]6N)nc4n3)c12`
Completion: 5.30 to 6.00

Prompt: Look up and report measured pIC50 for this entry: `N[C@@H]1c2ccccc2CC12CCN(c1nc3ncc(Sc4ccnc5ccccc45)nc3[nH]1)CC2`
Completion: > 6.00

----------
Would you mind telling me the reported IC50 of each entry?
target-system: SHP-2 enzyme (Met1-Leu525) (Homo sapiens)
Construct: synthetized by Origene, Met1-Leu525, cat #TP750155; purchased Origene TP750155
Sequence (Q06124 1-525): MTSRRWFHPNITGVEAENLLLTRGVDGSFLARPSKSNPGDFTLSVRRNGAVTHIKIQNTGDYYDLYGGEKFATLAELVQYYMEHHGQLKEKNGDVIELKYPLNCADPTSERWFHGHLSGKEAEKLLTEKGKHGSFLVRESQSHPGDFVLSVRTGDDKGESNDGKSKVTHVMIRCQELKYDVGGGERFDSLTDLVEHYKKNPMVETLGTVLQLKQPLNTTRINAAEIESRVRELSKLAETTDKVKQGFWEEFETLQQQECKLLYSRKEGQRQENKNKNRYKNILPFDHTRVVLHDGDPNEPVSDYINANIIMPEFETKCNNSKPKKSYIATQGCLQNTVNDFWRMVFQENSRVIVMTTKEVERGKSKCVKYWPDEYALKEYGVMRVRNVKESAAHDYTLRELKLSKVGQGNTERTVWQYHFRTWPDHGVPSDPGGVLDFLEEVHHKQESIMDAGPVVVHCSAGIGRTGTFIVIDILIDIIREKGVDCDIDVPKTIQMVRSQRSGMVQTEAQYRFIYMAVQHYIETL
assay-overview: SHP2 inhibition enzymatic assay (DiFMUP substrate, IRS1 peptide activation)
Assay type: biochemical
details: SHP2 wt; activated by 500 nM IRS1 peptide; 75 μM DiFMUP substrate

Prompt: System SHP-2 enzyme (Met1-Leu525) (Homo sapiens). Read-out IC50. Item `Cn1c(N2CCC(C)(N)CC2)nc2nc(Sc3cccnc3C(F)(F)F)cnc21` . Report value.
Completion: < 0.5 µM

Prompt: System SHP-2 enzyme (Met1-Leu525) (Homo sapiens). Read-out IC50. Item `COC1CN(c2nccc(Sc3cnc4nc(N5CCC6(CC5)Cc5ccccc5[C@H]6N)[nH]c4n3)c2Cl)C1` . Report value.
Completion: < 0.5 µM

Prompt: System SHP-2 enzyme (Met1-Leu525) (Homo sapiens). Read-out IC50. Item `N[C@@H]1c2ccccc2CC12CCN(c1nc3nc(Sc4ccnc5ccsc45)cnc3[nH]1)CC2` . Report value.
Completion: < 0.5 µM

Prompt: System SHP-2 enzyme (Met1-Leu525) (Homo sapiens). Read-out IC50. Item `Nc1nccc(Sc2cnc3[nH]c(N4CCC5(CC4)Cc4cc(CO)ccc4[C@H]5N)nc3n2)c1Cl` . Report value.
Completion: < 0.5 µM

Prompt: System SHP-2 enzyme (Met1-Leu525) (Homo sapiens). Read-out IC50. Item `NC1CCN(c2nc3nc(Sc4cccnc4C(F)(F)F)cnc3[nH]2)CC1` . Report value.
Completion: 0.5 to 3 µM

Prompt: System SHP-2 enzyme (Met1-Leu525) (Homo sapiens). Read-out IC50. Item `N[C@@H]1c2ncccc2OC12CCN(c1nc3nc(Sc4ccncc4Cl)cnc3[nH]1)CC2` . Report value.
Completion: < 0.5 µM

Prompt: System SHP-2 enzyme (Met1-Leu525) (Homo sapiens). Read-out IC50. Item `N[C@@H]1c2ccccc2CC12CCN(c1nc3ncc(Sc4ccnc(N5CCOCC5)c4Cl)nc3[nH]1)CC2` . Report value.
Completion: < 0.5 µM

Prompt: System SHP-2 enzyme (Met1-Leu525) (Homo sapiens). Read-out IC50. Item `CC1(N)CCN(c2nc3nc(Sc4cccc(C(F)(F)F)n4)cnc3[nH]2)CC1` . Report value.
Completion: 0.5 to 3 µM

Prompt: System SHP-2 enzyme (Met1-Leu525) (Homo sapiens). Read-out IC50. Item `CC1(N)CCN(c2nc3ncc(Sc4cccnc4C(F)(F)F)nc3[nH]2)CC1` . Report value.
Completion: < 0.5 µM

Prompt: System SHP-2 enzyme (Met1-Leu525) (Homo sapiens). Read-out IC50. Item `Cc1nc(COc2cnccc2Sc2cnc3[nH]c(N4CCC5(CC4)Cc4ccccc4[C@H]5N)nc3n2)co1` . Report value.
Completion: < 0.5 µM

Prompt: System SHP-2 enzyme (Met1-Leu525) (Homo sapiens). Read-out IC50. Item `CCNc1nccc(Sc2cnc3[nH]c(N4CCC5(CC4)Cc4ccccc4[C@H]5N)nc3n2)c1Cl` . Report value.
Completion: < 0.5 µM

Prompt: System SHP-2 enzyme (Met1-Leu525) (Homo sapiens). Read-out IC50. Item `CC1(N)CCN(c2nc3ncc(Oc4cccc(Cl)c4Cl)nc3[nH]2)CC1` . Report value.
Completion: 0.5 to 3 µM

Prompt: System SHP-2 enzyme (Met1-Leu525) (Homo sapiens). Read-out IC50. Item `CC1(N)CCN(c2nc3nc(Sc4cccc(Cl)c4Cl)ncc3[nH]2)CC1` . Report value.
Completion: 0.5 to 3 µM

Prompt: System SHP-2 enzyme (Met1-Leu525) (Homo sapiens). Read-out IC50. Item `Nc1nccc(Sc2cnc3[nH]c(N4CCC5(CC4)Cc4cc(F)c(F)cc4[C@H]5N)nc3n2)c1Cl` . Report value.
Completion: < 0.5 µM

Prompt: System SHP-2 enzyme (Met1-Leu525) (Homo sapiens). Read-out IC50. Item `N[C@@H]1c2ccccc2CC12CCN(c1nc3nc(Sc4cncnc4C(F)(F)F)cnc3[nH]1)CC2` . Report value.
Completion: < 0.5 µM

Prompt: System SHP-2 enzyme (Met1-Leu525) (Homo sapiens). Read-out IC50. Item `N[C@@H]1c2ccccc2CC12CCN(c1nc3nc(Sc4cccnc4C(F)(F)F)c(Cl)nc3[nH]1)CC2` . Report value.
Completion: < 0.5 µM
